Data origin, for the record: patent US20250161299A1

PROTOCOL_DESCRIPTION: Phase I trial of oral PCLX-001: plasma pharmacokinetics, noncompartmental analysis (Phoenix WinNonlin 8.3)
Format: in vivo, human
PARTICULARS: human, plasma, oral, 40 mg, Table 4; not on Pantoprazole; 40 mg; N 1; Day 15; read-out: Tmax
Source text: The clinical trial is entitled “Phase I Trial of PCLX-001 in B-cell Non-Hodgkin Lymphoma and Advanced Solid Malignancies” and registered at clinicaltrials.gov as NCT04836195. It is a phase I dose-escalation study of oral PCLX-001, conducted in a multicenter, non-randomized, open-label, non-controlled design. The study is comprised of two parts: Part A (single-agent dose escalation) and Part B (single-agent expansion cohorts). […]
MEASUREMENT_LABEL: Tmax (h)
One number for each entry, in h.

Record `Cc1c(NS(=O)(=O)c2c(Cl)cc(-c3ccnc(N4CCNCC4)c3)cc2Cl)c(CC(C)C)nn1C` , field Tmax: 2

----------
PROTOCOL_DESCRIPTION: Phase I trial of oral PCLX-001: plasma pharmacokinetics, noncompartmental analysis (Phoenix WinNonlin 8.3)
Type: in vivo, human
PARTICULARS: human, plasma, po, 140 mg, Table 10; Patient 115-024-013; Day 15; Dose 140 mg QD oral; Concomitant Pantoprazole Yes; read-out: AUClast or AUCtau
MEASUREMENT_LABEL: AUC(0-t) (ng·h/mL)
One number for each entry, in ng·h/mL.

Record Cc1c(NS(=O)(=O)c2c(Cl)cc(-c3ccnc(N4CCNCC4)c3)cc2Cl)c(CC(C)C)nn1C [PCLX-001] , field AUC(0-t): 11000

----------
PROTOCOL_DESCRIPTION: Phase I trial of oral PCLX-001: plasma pharmacokinetics, noncompartmental analysis (Phoenix WinNonlin 8.3)
Type: in vivo, human
PARTICULARS: human, plasma, po, 20 mg, Table 6; Patient 115-002-002; Day 1; 20 mg QD oral; Pantoprazole No
MEASUREMENT_LABEL: Cmax (ng/mL)
Give bare numbers, in ng/mL.

Record Cc1c(NS(=O)(=O)c2c(Cl)cc(-c3ccnc(N4CCNCC4)c3)cc2Cl)c(CC(C)C)nn1C [PCLX-001] , field Cmax: 142

----------
PROTOCOL_DESCRIPTION: Phase I trial of oral PCLX-001: plasma pharmacokinetics, noncompartmental analysis (Phoenix WinNonlin 8.3)
Type: in vivo, human
PARTICULARS: human, plasma, po, 100 mg, Table 9; Patient 115-002-009; Day 1; 100 mg QD oral; Pantoprazole No; read-out: Tmax
MEASUREMENT_LABEL: Tmax (h)
Numbers only, in h.

Record `Cc1c(NS(=O)(=O)c2c(Cl)cc(-c3ccnc(N4CCNCC4)c3)cc2Cl)c(CC(C)C)nn1C` , field Tmax: 2

----------
PROTOCOL_DESCRIPTION: Phase I trial plasma pharmacokinetics, two-compartment model (PK Solver 2.0)
Format: in vivo
PARTICULARS: human, oral, Table 1B third line, Patient 115-002-001, Day 15 as printed, 20 mg
MEASUREMENT_LABEL: AUC(0-t) (µg·h/mL)
One number for each entry, in µg·h/mL.

Record `Cc1c(NS(=O)(=O)c2c(Cl)cc(-c3ccnc(N4CCNCC4)c3)cc2Cl)c(CC(C)C)nn1C` , field AUC(0-t): 1.7

----------
PROTOCOL_DESCRIPTION: Phase I trial of oral PCLX-001: plasma pharmacokinetics, noncompartmental analysis (Phoenix WinNonlin 8.3)
Assay type: in vivo, human
PARTICULARS: human, plasma, po, 20 mg, Table 1A; Patient 115-002-002 (Patient 2); Day 15; 20 mg oral daily; read-out: Half-life (converted)
MEASUREMENT_LABEL: half-life

Record `Cc1c(NS(=O)(=O)c2c(Cl)cc(-c3ccnc(N4CCNCC4)c3)cc2Cl)c(CC(C)C)nn1C` , field half-life: ~10 h

----------
PROTOCOL_DESCRIPTION: Phase I trial of oral PCLX-001: plasma pharmacokinetics, noncompartmental analysis (Phoenix WinNonlin 8.3)
Assay type: in vivo, human
PARTICULARS: human, plasma, oral, 100 mg, Table 4; Mean; not on Pantoprazole; 100 mg; N 4; Day 1; read-out: t½ (converted)
MEASUREMENT_LABEL: half-life (h)
Answers are plain numbers, in h.

Record `Cc1c(NS(=O)(=O)c2c(Cl)cc(-c3ccnc(N4CCNCC4)c3)cc2Cl)c(CC(C)C)nn1C` , field half-life: 7.26

----------
PROTOCOL_DESCRIPTION: Phase I trial of oral PCLX-001: plasma pharmacokinetics, noncompartmental analysis (Phoenix WinNonlin 8.3)
Type: in vivo, human
PARTICULARS: human, plasma, po, 140 mg, Table 10; Patient 115-002-006; Day 1; Dose 140 mg QD oral; Concomitant Pantoprazole No; read-out: Tmax
From the text: The clinical trial is entitled “Phase I Trial of PCLX-001 in B-cell Non-Hodgkin Lymphoma and Advanced Solid Malignancies” and registered at clinicaltrials.gov as NCT04836195. It is a phase I dose-escalation study of oral PCLX-001, conducted in a multicenter, non-randomized, open-label, non-controlled design. The study is comprised of two parts: Part A (single-agent dose escalation) and Part B (single-agent expansion cohorts). […]
MEASUREMENT_LABEL: Tmax (min)
One number for each entry, in min.

Record Cc1c(NS(=O)(=O)c2c(Cl)cc(-c3ccnc(N4CCNCC4)c3)cc2Cl)c(CC(C)C)nn1C [PCLX-001] , field Tmax: 30

----------
PROTOCOL_DESCRIPTION: Phase I trial of oral PCLX-001: plasma pharmacokinetics, noncompartmental analysis (Phoenix WinNonlin 8.3)
Type: in vivo, human
PARTICULARS: human, plasma, po, 40 mg, Table 7; Patient 115-002-005; Day 1; 40 mg QD oral; Pantoprazole Yes
MEASUREMENT_LABEL: Cmax (ng/mL)
Answers are plain numbers, in ng/mL.

Record `Cc1c(NS(=O)(=O)c2c(Cl)cc(-c3ccnc(N4CCNCC4)c3)cc2Cl)c(CC(C)C)nn1C` , field Cmax: 868

----------
PROTOCOL_DESCRIPTION: Phase I trial of oral PCLX-001: plasma pharmacokinetics, noncompartmental analysis (Phoenix WinNonlin 8.3)
Format: in vivo, human
PARTICULARS: human, plasma, oral, 20 mg, Table 4; median (min, max); not on Pantoprazole; 20 mg; N 3; Day 1; read-out: Tmax
MEASUREMENT_LABEL: Tmax (h)
Numbers only, in h.

Record `Cc1c(NS(=O)(=O)c2c(Cl)cc(-c3ccnc(N4CCNCC4)c3)cc2Cl)c(CC(C)C)nn1C` , field Tmax: 2

----------
PROTOCOL_DESCRIPTION: Phase I trial of oral PCLX-001: plasma pharmacokinetics, noncompartmental analysis (Phoenix WinNonlin 8.3)
Format: in vivo, human
PARTICULARS: human, plasma, po, 20 mg, Table 6; Patient 115-002-002; Day 15; 20 mg QD oral; Pantoprazole No; read-out: Tmax
MEASUREMENT_LABEL: Tmax (h)
Numbers only, in h.

Record `Cc1c(NS(=O)(=O)c2c(Cl)cc(-c3ccnc(N4CCNCC4)c3)cc2Cl)c(CC(C)C)nn1C` , field Tmax: 2

----------
PROTOCOL_DESCRIPTION: Phase I trial of oral PCLX-001: plasma pharmacokinetics, noncompartmental analysis (Phoenix WinNonlin 8.3)
Format: in vivo, human
PARTICULARS: human, plasma, po, 140 mg, Table 10; Patient 115-024-013; Day 1; Dose 140 mg QD oral; Concomitant Pantoprazole Yes
MEASUREMENT_LABEL: AUC(0-inf) (ng·h/mL)
One number for each entry, in ng·h/mL.

Record `Cc1c(NS(=O)(=O)c2c(Cl)cc(-c3ccnc(N4CCNCC4)c3)cc2Cl)c(CC(C)C)nn1C` , field AUC(0-inf): 11500

----------
PROTOCOL_DESCRIPTION: Phase I trial of oral PCLX-001: plasma pharmacokinetics, noncompartmental analysis (Phoenix WinNonlin 8.3)
Format: in vivo, human
PARTICULARS: human, plasma, po, 20 mg, Table 1A; Patient 115-002-002 (Patient 2); Day 15; 20 mg oral daily
MEASUREMENT_LABEL: AUC(0-inf) (ng·h/mL)
One number for each entry, in ng·h/mL.

Record `Cc1c(NS(=O)(=O)c2c(Cl)cc(-c3ccnc(N4CCNCC4)c3)cc2Cl)c(CC(C)C)nn1C` , field AUC(0-inf): 2520

----------
PROTOCOL_DESCRIPTION: Phase I trial of oral PCLX-001: plasma pharmacokinetics, noncompartmental analysis (Phoenix WinNonlin 8.3)
Format: in vivo, human
PARTICULARS: human, plasma, oral, 100 mg, Table 4; Mean; not on Pantoprazole; 100 mg; N 4; Day 1; read-out: AUClast
MEASUREMENT_LABEL: AUC(0-t) (µg·h/mL)
Give bare numbers, in µg·h/mL.

Record Cc1c(NS(=O)(=O)c2c(Cl)cc(-c3ccnc(N4CCNCC4)c3)cc2Cl)c(CC(C)C)nn1C [PCLX-001] , field AUC(0-t): 15.1
